Where do these numbers come from? They come from ChEMBL document CHEMBL1122513.

# Tested on: L1210
# assay.overview: Antineoplastic activity of compound in mice inoculated with 10e 5 L1210 leukemia cells was measured as weight change after ip administration of 200 […]
# Format: functional, Mus musculus
assay.metric: Weight change (g)
Your answer should be a plain number; it is taken to be in g.

Measured Weight change of Nc1nc(O)c2nnn(C3CC(O)C(CO)C3)c2n1 (centres undefined) : -3.2

Measured Weight change of Nc1nc(S)c2ncn(C3CC(O)C(CO)C3)c2n1 (centres undefined) : 0.5

Measured Weight change of Nc1nc(Cl)c2nnn(C3CC(O)C(CO)C3)c2n1 (centres undefined) : -4.4

Measured Weight change of Nc1nc(Cl)c2ncn(C3CC(O)C(CO)C3)c2n1 (centres undefined) : -2.2
